system: RXF-631 renal; experiment: NCI tumour cell line growth inhibition, 48 h
readout-kind: TGI

In [3]: df
Out[3]:
                                   molecule  experimental_value
0                      N#CC(C#N)=CSc1ccccc1            > 100 µM
1     Cc1cc(C)cc(Sc2c([N+](=O)[O-])ncn2C)c1             51.3 µM
2       CCN(CC)CCNC(=O)c1cccc2cc3ccccc3nc12             32.8 µM
3  COc1cc2cc[n+]3c4cc(OC)c(OC)cc4c(C)cc3c2cc1OC            > 100 µM
4  COc1cc(C(C)c2cc3c(cc2OCCCCOc2cc4c(cc2C(C)c2cc(OC)c(OC)c(OC)c2)OCO4)OCO3)cc(OC)c1OC (stereo not drawn)            > 100 µM
5  O=C(O)C1CCCCN1C(=O)c1ccccc1 (stereo not drawn)            > 100 µM
6  C[C@H]1CC(=O)C2=CCCC3(SCCCS3)[C@@H]2[C@H]1CO            > 100 µM
7  CC1(C)C2CCC3(OCCO3)C1C1OC12 (stereo not drawn)            > 100 µM

Data credit: PubChem BioAssay (NCI)
